- System Name: T1, soluble human PD-1 (the extracellular domain of human PD-1 fused to a His tag) (human, UniProt Q15116 25-170)
- T1 construct: also called shPD-1 His; shPD-1-His; not shown: His tag
- T1 sequence (Q15116 25-170): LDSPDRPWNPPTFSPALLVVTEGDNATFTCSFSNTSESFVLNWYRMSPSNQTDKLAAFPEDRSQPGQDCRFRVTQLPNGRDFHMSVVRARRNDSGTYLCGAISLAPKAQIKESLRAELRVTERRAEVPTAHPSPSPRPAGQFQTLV
- Test Details: Biacore, mAb captured on Protein A, analyte shPD-1 His
For each of the binders below, state its Kd.
Numbers only, in nM.

- PD-1 mAb 9 (antibody, V domains shown, Murine monoclonal antibody) VH: EVMLVESGGGLVKPGGSLKLSCAASGFTFSSYLVSWVRQTPEKRLEWVATISGGGGNTYYSDSVKGRFTISRDNAKNTLYLQISSLRSEDTALYYCARYGFDGAWFAYWGQGTLVTVSS VL: DIQMTQSPASLSASVGDIVTITCRASENIYSYLAWYQQKQEKSPQLLVYNAKTLAAGVPSRFSGSGSGTQFSLTINSLQPEDFGNYYCQHHYAVPWTFGGGTRLEIT: 9.8

Next up:
Recorded Kd of hPD-1 mAb 9 (1.1), constant region not named where tested (antibody, V domains shown) VH: EVQLVESGGGLVRPGGSLKLSCAASGFTFSSYLVSWVRQAPGKGLEWVATISGGGGNTYYSDSVKGRFTISRDNAKNSLYLQMNSLRAEDTATYYCARYGFDGAWFAYWGQGTLVTVSS VL: DIQMTQSPSSLSASVGDRVTITCRASENIYSYLAWYQQKPGKAPKLLIYNAKTLAAGVPSRFSGSGSGTDFTLTISSLQPEDFATYYCQHHYAVPWTFGQGTKLEIK , please.
36.1

Source of measurements: patent US12534531
